Test system: 186277-243-T-J2-PDC multi-cell spheroid viability
Experiment: Anticancer human tumor 186277-243-T-J2-PDC patient-derived colon adenocarcinoma cell line growth inhibition [PI3K]; active = viability on the fitted dose curve at most 10% of control; inactive = the rest
Details: second compound 1 µM; first compound 0.03 µM
Source text: Combinatorial screen of targeted agents with the PI3K inhibitors inavolisib, alpelisib, duvelisib, and copanlisib in multi-cell type tumor spheroids A high-throughput screen of multi-cell type tumor spheroids was designed to identify active combinations of targeted small molecules and PI3K pathway inhibitors. […] Compounds. […] If the clinical Cmax for an agent had not been determined, the highest concentration tested was 10 microM. […]
Tick one outcome: active, inactive

* Cn1cnc2c(F)c(Nc3ccc(Br)cc3Cl)c(C(=O)NOCCO)cc21 + Cc1nc(NC(=O)N2CCCC2C(N)=O)sc1-c1ccnc(C(C)(C)C(F)(F)F)c1 | inactive
* Cn1cnc2c(F)c(Nc3ccc(Br)cc3Cl)c(C(=O)NOCCO)cc21 + COc1c(OCCCN2CCOCC2)ccc2c3n(c(=NC(=O)c4cnc(N)nc4)nc12)CCN3 | active
* Cn1cnc2c(F)c(Nc3ccc(Br)cc3Cl)c(C(=O)NOCCO)cc21 + CC(Nc1ncnc2nc[nH]c12)c1cc2cccc(Cl)c2c(=O)n1-c1ccccc1 | inactive

Pending compound:
Status in this test for Cn1cnc2c(F)c(Nc3ccc(Br)cc3Cl)c(C(=O)NOCCO)cc21 + CC(Nc1ccc2c(c1)OCCn1cc(N3C(=O)OCC3C(F)F)nc1-2)C(N)=O ? inactive

====

test system: 186277-243-T-J2-PDC multi-cell spheroid viability; assay: Anticancer human tumor 186277-243-T-J2-PDC cell line growth inhibition [PI3K]; conditions: second compound 3.16 µM; first compound 0.01 µM; active compounds read low;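 also: spheroids exposed to compounds for seven days before viability reading; 100% = DMSO vehicle control viability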
Recorded viability, T/C, one value per entry.

Which viability, T/C value is on record for CC(=O)c1c(C)c2cnc(Nc3ccc(N4CCNCC4)cn3)nc2n(C2CCCC2)c1=O + Cc1nc(NC(=O)N2CCCC2C(N)=O)sc1-c1ccnc(C(C)(C)C(F)(F)F)c1 ? 53.3%

Another: CC(C)n1nc(-c2ccc3oc(N)nc3c2)c2c(N)ncnc21 + CC(Nc1ncnc2nc[nH]c12)c1cc2cccc(Cl)c2c(=O)n1-c1ccccc1 92.2%

Another: Cn1ncnc1[C@H]1c2n[nH]c(=O)c3cc(F)cc(c23)N[C@@H]1c1ccc(F)cc1 + Cc1nc(NC(=O)N2CCCC2C(N)=O)sc1-c1ccnc(C(C)(C)C(F)(F)F)c1 46.9%

====

system: 186277-243-T-J2-PDC multi-cell spheroid viability; assay: Anticancer human tumor 186277-243-T-J2-PDC cell line growth inhibition [PI3K]; conditions: second compound 0.316 µM; first compound 1 µM; active compounds read low;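 also: spheroids exposed to compounds for seven days before viability reading; 100% = DMSO vehicle control viability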
Lab note: anything with viability, T/C below 40% is marked MET; values at 40% or higher are marked NOT MET.

As a guide, the following entries are already answered.
• C#Cc1c(F)ccc2cc(O)cc(-c3ncc4c(N5CC6CCC(C5)N6)nc(OCC56CCCN5CC(F)C6)nc4c3F)c12 (stereo not given) + CC(Nc1ncnc2nc[nH]c12)c1cc2cccc(Cl)c2c(=O)n1-c1ccccc1 = MET
• CNC(=O)c1ccc(N2C(=S)N(c3ccc(C#N)c(C(F)(F)F)c3)C(=O)C2(C)C)cc1F + CC(Nc1ccc2c(c1)OCCn1cc(N3C(=O)OCC3C(F)F)nc1-2)C(N)=O = NOT MET
• CC1(C)CCC(CN2CCN(c3ccc(C(=O)NS(=O)(=O)c4ccc(NCC5CCOCC5)c([N+](=O)[O-])c4)c(Oc4cnc5[nH]ccc5c4)c3)CC2)=C(c2ccc(Cl)cc2)C1 + CC(Nc1ccc2c(c1)OCCn1cc(N3C(=O)OCC3C(F)F)nc1-2)C(N)=O = NOT MET
• C#Cc1c(F)ccc2cc(O)cc(-c3ncc4c(N5CC6CCC(C5)N6)nc(OCC56CCCN5CC(F)C6)nc4c3F)c12 (stereo not given) + CC(Nc1ccc2c(c1)OCCn1cc(N3C(=O)OCC3C(F)F)nc1-2)C(N)=O = MET
• C=CC(=O)N1CCN(c2nc(=O)n(-c3c(C)ccnc3C(C)C)c3nc(-c4c(O)cccc4F)c(F)cc23)C(C)C1 (stereo not given) + CC(Nc1ccc2c(c1)OCCn1cc(N3C(=O)OCC3C(F)F)nc1-2)C(N)=O = NOT MET
• CC(Cn1ccc(-c2ccc(C#N)c(Cl)c2)n1)NC(=O)c1cc(C(C)O)[nH]n1 (stereo not given) + CC(Nc1ccc2c(c1)OCCn1cc(N3C(=O)OCC3C(F)F)nc1-2)C(N)=O = NOT MET
• CCN1CCN(Cc2ccc(Nc3ncc(F)c(-c4cc(F)c5nc(C)n(C(C)C)c5c4)n3)nc2)CC1 + CC(Nc1ncnc2nc[nH]c12)c1cc2cccc(Cl)c2c(=O)n1-c1ccccc1 = NOT MET
• CC1(C)CCC(Nc2ncc(C(F)(F)F)c(-c3c[nH]c4c(P(C)(C)=O)c(C#N)ccc34)n2)CN1 (stereo not given) + COc1c(OCCCN2CCOCC2)ccc2c3n(c(=NC(=O)c4cnc(N)nc4)nc12)CCN3 = MET
• Cn1nccc1Nc1nccc(-c2ccn(C(CO)c3ccc(Cl)c(F)c3)c(=O)c2)n1 (stereo not given) + Cc1nc(NC(=O)N2CCCC2C(N)=O)sc1-c1ccnc(C(C)(C)C(F)(F)F)c1 = MET
• Cn1ncc(Cl)c1-c1cc(C(=O)NC(CN)Cc2cccc(F)c2)sc1Cl (stereo not given) + COc1c(OCCCN2CCOCC2)ccc2c3n(c(=NC(=O)c4cnc(N)nc4)nc12)CCN3 = MET

Pending compound:
Does this compound meet the criterion viability, T/C < 40%? C[C@@H](NC(=O)c1ncnc(N)c1Cl)c1ncc(C(=O)Nc2cc(C(F)(F)F)c(Cl)cn2)s1 + CC(Nc1ccc2c(c1)OCCn1cc(N3C(=O)OCC3C(F)F)nc1-2)C(N)=O NOT MET

====

test system: 186277-243-T-J2-PDC multi-cell spheroid viability; assay: Anticancer human tumor 186277-243-T-J2-PDC cell line growth inhibition [PI3K]; details: second compound 10 µM; first compound 0.01 µM; active compounds read low;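 also: spheroids exposed to compounds for seven days before viability reading; 100% = DMSO vehicle control viability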
Lab note: anything with viability, T/C below 80% is marked true (1); values at 80% or higher are marked false (0).

• Cn1ncnc1[C@H]1c2n[nH]c(=O)c3cc(F)cc(c23)N[C@@H]1c1ccc(F)cc1 + Cc1nc(NC(=O)N2CCCC2C(N)=O)sc1-c1ccnc(C(C)(C)C(F)(F)F)c1 = true (1)
• CC(=O)c1c(C)c2cnc(Nc3ccc(N4CCNCC4)cn3)nc2n(C2CCCC2)c1=O + Cc1nc(NC(=O)N2CCCC2C(N)=O)sc1-c1ccnc(C(C)(C)C(F)(F)F)c1 = true (1)
• CCN1CCN(Cc2ccc(Nc3ncc(F)c(-c4cc(F)c5nc(C)n(C(C)C)c5c4)n3)nc2)CC1 + Cc1nc(NC(=O)N2CCCC2C(N)=O)sc1-c1ccnc(C(C)(C)C(F)(F)F)c1 = true (1)

Does this compound meet the criterion viability, T/C < 80%? Cn1ncnc1[C@H]1c2n[nH]c(=O)c3cc(F)cc(c23)N[C@@H]1c1ccc(F)cc1 + CC(Nc1ncnc2nc[nH]c12)c1cc2cccc(Cl)c2c(=O)n1-c1ccccc1 false (0)

Another: CCN1CCN(Cc2ccc(Nc3ncc(F)c(-c4cc(F)c5nc(C)n(C(C)C)c5c4)n3)nc2)CC1 + CC(Nc1ncnc2nc[nH]c12)c1cc2cccc(Cl)c2c(=O)n1-c1ccccc1 false (0)

Another: CC(C)n1nc(-c2ccc3oc(N)nc3c2)c2c(N)ncnc21 + Cc1nc(NC(=O)N2CCCC2C(N)=O)sc1-c1ccnc(C(C)(C)C(F)(F)F)c1 true (1)

====

test system: 186277-243-T-J2-PDC multi-cell spheroid viability; test: Anticancer human tumor 186277-243-T-J2-PDC cell line growth inhibition [PI3K]; details: second compound 10 µM; first compound 3.16 µM; active compounds read low;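 also: spheroids exposed to compounds for seven days before viability reading; 100% = DMSO vehicle control viability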
measured-property: viability, T/C

Look over these answered cases.
- C[C@@H](NC(=O)c1ncnc(N)c1Cl)c1ncc(C(=O)Nc2cc(C(F)(F)F)c(Cl)cn2)s1 + Cc1nc(NC(=O)N2CCCC2C(N)=O)sc1-c1ccnc(C(C)(C)C(F)(F)F)c1: 5.43%
- Cn1nccc1Nc1nccc(-c2ccn(C(CO)c3ccc(Cl)c(F)c3)c(=O)c2)n1 (stereo not given) + Cc1nc(NC(=O)N2CCCC2C(N)=O)sc1-c1ccnc(C(C)(C)C(F)(F)F)c1: 1.39%

Which viability, T/C value is on record for C#Cc1c(F)ccc2cc(O)cc(-c3ncc4c(N5CC6CCC(C5)N6)nc(OCC56CCCN5CC(F)C6)nc4c3F)c12 (stereo not given) + Cc1nc(NC(=O)N2CCCC2C(N)=O)sc1-c1ccnc(C(C)(C)C(F)(F)F)c1 ? 0.83%

Another: CCCS(=O)(=O)Nc1ccc(F)c(C(=O)c2c[nH]c3ncc(-c4ccc(Cl)cc4)cc23)c1F + CC(Nc1ncnc2nc[nH]c12)c1cc2cccc(Cl)c2c(=O)n1-c1ccccc1 87.6%

Another: Cn1ncc(Cl)c1-c1cc(C(=O)NC(CN)Cc2cccc(F)c2)sc1Cl (stereo not given) + Cc1nc(NC(=O)N2CCCC2C(N)=O)sc1-c1ccnc(C(C)(C)C(F)(F)F)c1 3.36%
